- TARGET: Luciferin 4-monooxygenase (Photinus pyralis) (UniProt P08659)
- Sequence (P08659 whole entry, looked up): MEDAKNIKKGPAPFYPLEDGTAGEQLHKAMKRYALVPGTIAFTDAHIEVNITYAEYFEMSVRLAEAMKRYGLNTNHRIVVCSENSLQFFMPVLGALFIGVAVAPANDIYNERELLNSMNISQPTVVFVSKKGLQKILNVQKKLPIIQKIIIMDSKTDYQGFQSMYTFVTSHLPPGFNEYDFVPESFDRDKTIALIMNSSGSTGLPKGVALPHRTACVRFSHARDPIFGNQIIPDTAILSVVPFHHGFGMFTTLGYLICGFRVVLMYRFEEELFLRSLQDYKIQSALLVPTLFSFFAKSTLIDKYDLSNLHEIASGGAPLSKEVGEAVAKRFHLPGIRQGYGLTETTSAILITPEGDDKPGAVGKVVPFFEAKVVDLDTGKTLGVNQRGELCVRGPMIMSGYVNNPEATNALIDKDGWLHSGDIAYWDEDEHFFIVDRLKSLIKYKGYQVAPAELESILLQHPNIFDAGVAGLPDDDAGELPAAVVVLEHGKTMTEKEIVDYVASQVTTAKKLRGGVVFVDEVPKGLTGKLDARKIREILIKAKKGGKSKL
- ASSAY PROCEDURE: firefly luciferase enzyme inhibitors, primary screen, biochemical, luminescence, purified enzyme, 2006 set (AID 1141);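 also: cell-free assay with purified firefly luciferase at 100 ng per well in PBS; test concentration not given here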
- SETTINGS: SteadyGlo luminescence, 30 min, higher = more signal, called active from +8 up or from −8 down
z-score values, listed per item
Just the number, please, no unit after it.

Here are 3 molecules together with their reported answers.
[
  {
    "MOLECULE": "C[C@H](c1ccccc1)N1C(=O)[C@H]2[C@@H]3C(=CC[C@H]2C1=O)C(=O)[C@H]1O[C@H]1[C@H]3O",
    "TARGET": "Luciferin 4-monooxygenase (Photinus pyralis) (UniProt P08659)",
    "OBSERVATION TYPE": "z-score",
    "TEST RESULT": -1.47
  },
  {
    "MOLECULE": "COC(=O)CC=C[C@@H](C)[C@@H](C=NO[C@@H](C)c1cc(-c2c(C)cc(C)cc2C)no1)OC",
    "TARGET": "Luciferin 4-monooxygenase (Photinus pyralis) (UniProt P08659)",
    "OBSERVATION TYPE": "z-score",
    "TEST RESULT": 0.973
  },
  {
    "MOLECULE": "COc1cccc([C@@H]2Oc3ccc(Br)cc3C(=O)[C@H]2O)c1",
    "TARGET": "Luciferin 4-monooxygenase (Photinus pyralis) (UniProt P08659)",
    "OBSERVATION TYPE": "z-score",
    "TEST RESULT": -3.5
  }
]

Now let's try a different one.
Noted for COC(=O)[C@H](C)NC(=O)CCC1CC(OC(=O)NCCc2ccc(F)cc2)CC2(CCCC(COC(=O)NCCc3ccc(Cl)cc3)O2)O1 (some centres undefined) : its z-score reads 0.0182

Hello, the source for this data is PubChem BioAssay, in case you need it.
